# SYSTEM: Hexose transporter 1 (Plasmodium falciparum) (UniProt O97467)
# EXPERIMENT DESCRIPTION: ST_JUDE_LEISH: Cytotoxicity at 2uM final concentration against transgenic Leishmania Mexicana promastigotes LmPfHT that are glucose transport deficient and complemented with the Plasmodium falciparum hexose transporter. Activity is measured by DNA content using SYBR green in vitro
# Type: functional
PARAMETER MEASURED: inhibition
Please answer in the form of a number followed by its unit of measurement.

Look up inhibition: CS(=O)(=O)N1CC2(CCN(CCC(NC(=O)NCc3ccccc3Cl)c3ccc(Cl)c(Cl)c3)CC2)c2ccccc21 (stereo unspecified)
1.46%

Look up inhibition: COCc1ccccc1C(=O)NCCOc1cc(C)cc(C)c1
0.17%

Look up inhibition: O=C(NCc1ccc(Cl)c(Cl)c1)[C@H]1CNCCN1C(=O)c1ccccc1
1.69%

Look up inhibition: CC(C)NCc1cccc(-c2ccc(-c3nc4ccccc4[nH]3)cc2)c1
2.97%

Look up inhibition: Cc1cc(NCCCCCCCCNc2cc(C)nc3ccccc23)c2ccccc2n1
1.84%

Continuing:
Look up inhibition: N#Cc1cccc(CN2CCCN(Cc3ccc(C(=O)Nc4ccc(Cl)cc4)cc3)CC2)c1
5.4%

Look up inhibition: COc1cccc(C(=O)OC2=C3CCC(=O)C3(C)CCC2=O)c1 (stereo unspecified)
4.65%

Look up inhibition: Cc1ccc2cc(NC(=O)c3cccc(C(=O)Nc4ccc5nc(C)ccc5c4)n3)ccc2n1
12.2%

Look up inhibition: Cc1ccc(NC(=O)NC2CCN(c3ccnc4ccccc34)CC2)cc1
1.21%

Look up inhibition: CC(CCCCC(=O)Nc1ccc(C(F)(F)F)cc1)NCC(O)c1cccc(Cl)c1 (stereo unspecified)
-0.95%

Look up inhibition: O=C(NCCCN1CCC(N2CCCCC2)CC1)c1ccc2nc(N3CCCCC3)sc2c1
8.39%

Look up inhibition: COC(=O)c1ccc(-c2ccc(C(=O)NCC3CCN(c4nc(N)c5cc(OC)c(OC)cc5n4)CC3)cc2)cc1
4.23%

###

# SYSTEM: Solute carrier family 2, facilitated glucose transporter member 1 (Homo sapiens) (UniProt P11166)
# Sequence (P11166 whole entry): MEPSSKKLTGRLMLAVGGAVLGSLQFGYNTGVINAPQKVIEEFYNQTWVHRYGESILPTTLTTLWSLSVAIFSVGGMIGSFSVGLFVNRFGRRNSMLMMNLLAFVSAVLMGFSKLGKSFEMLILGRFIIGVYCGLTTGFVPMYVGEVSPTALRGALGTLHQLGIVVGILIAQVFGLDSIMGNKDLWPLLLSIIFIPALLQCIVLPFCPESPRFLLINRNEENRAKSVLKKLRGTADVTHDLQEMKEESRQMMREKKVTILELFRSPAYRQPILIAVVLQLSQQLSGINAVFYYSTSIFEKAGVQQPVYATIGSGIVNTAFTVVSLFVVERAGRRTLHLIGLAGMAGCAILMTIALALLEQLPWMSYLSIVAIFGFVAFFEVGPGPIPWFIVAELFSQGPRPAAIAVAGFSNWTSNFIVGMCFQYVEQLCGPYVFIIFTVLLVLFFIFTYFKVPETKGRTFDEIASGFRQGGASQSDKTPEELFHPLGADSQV
# EXPERIMENT DESCRIPTION: ST_JUDE_LEISH: Cytotoxicity at 2uM final concentration against transgenic Leishmania Mexicana promastigotes LmGLUT1 that are glucose transport deficient and complemented with the human glucose transporter GLUT1. Activity is measured by DNA content using SYBR green in vitro
# Format: functional
Please use true whenever inhibition is not below 8%, and false whenever it is.

Worked examples, 5 compounds total:
Item COc1ccc2c(c1)CC1CN(CCCCNC(=O)c3ccc(NC(=O)c4cc(Cl)cc(Cl)c4)cc3)CCN1C2 (configuration not stated) with inhibition of 8% or above?
false

Item COc1ccc(NC(=O)NC2CCN(c3ccnc4cc(Cl)ccc34)CC2)cc1 with inhibition of 8% or above?
false

Item COc1ccc2nccc([C@@H](O)CN3CCC(NCc4cc5ccccc5cn4)CC3)c2n1 with inhibition of 8% or above?
true

Item O=C(Nc1ccccc1)OCCOc1ccc(CC2SC(=O)NC2=O)cc1 (configuration not stated) with inhibition of 8% or above?
false

Item O=C(NCCCCCN1CCC(c2c[nH]c3ccccc23)CC1)Nc1ccc(I)cc1 with inhibition of 8% or above?
true

Proceed to the following item.
Item Cc1cccc(-c2ccc3c(c2)CC(NCc2cccc(-n4ccnc4)c2)C3)c1 (configuration not stated) with inhibition of 8% or above?
true

###

Quick list: inhibition per entry.
# SYSTEM: Solute carrier family 2, facilitated glucose transporter member 1 (Homo sapiens) (UniProt P11166)
# EXPERIMENT DESCRIPTION: ST_JUDE_LEISH: Cytotoxicity at 2uM final concentration against transgenic Leishmania Mexicana promastigotes LmGLUT1 that are glucose transport deficient and complemented with the human glucose transporter GLUT1. Activity is measured by DNA content using SYBR green in vitro
# Assay type: functional
Express it in %; write the number only.

Look up inhibition: CN(C)CCNC(=O)[C@H](CC1CCCCC1)NC(=O)c1ccc(O)c(-c2ccc(Cl)c(Cl)c2)c1
4

Look up inhibition: CC(C)c1ccc(CN2CCC(CNC(=O)c3cc(-c4cccc(F)c4)cs3)C2)cc1 (configuration not stated)
0.2

Look up inhibition: Cc1onc(-c2c(Cl)cccc2Cl)c1C(=O)N1CCc2cc3nccc(N4CCN5CCC[C@H]5C4)c3cc21
3.46

Look up inhibition: Cc1cc2nc(-c3ccc(C(=O)NCc4cccc(F)c4)cc3)[nH]c2cc1C
-0.23

Look up inhibition: CC(=Nc1ccc(Cl)c(Cl)c1)N(C)C
0.17

Continuing:
Look up inhibition: CC(=O)Nc1ccc2[nH]cc(C3CCN(CCC4CCN(C(=O)/C=C/c5ccc(Cl)c(Cl)c5)CC4)CC3)c2n1
0.57

Look up inhibition: CCn1c(Sc2ccc([N+](=O)[O-])c(C#N)c2)nnc1-c1cccc(Cl)c1
1.53

Look up inhibition: CCOC(=O)c1sc(C(C)Nc2ccccc2)nc1-c1ccccc1 (configuration not stated)
0.89

Look up inhibition: Clc1ccc(Sc2cncnc2N2CCOCC2)cc1
3.31

Look up inhibition: CC(C)(C)c1ccc(CN2CCC(CNC(=O)c3cc(-c4cccc(C(F)(F)F)c4)cs3)C2)cc1 (configuration not stated)
-1.18

Look up inhibition: Cc1ccc2c(OCCN3CCC(Cc4cc5c(cc4F)OCC(=O)N5)CC3)cc(F)cc2n1
5.35

Look up inhibition: Cc1c(Oc2ccc(-n3ccnc3)cc2)ncnc1N1CCC2(CC1)CNCc1ccccc12
10.5

###

# SYSTEM: Solute carrier family 2, facilitated glucose transporter member 1 (Homo sapiens) (UniProt P11166)
# EXPERIMENT DESCRIPTION: ST_JUDE_LEISH: Cytotoxicity at 2uM final concentration against transgenic Leishmania Mexicana promastigotes LmGLUT1 that are glucose transport deficient and complemented with the human glucose transporter GLUT1. Activity is measured by DNA content using SYBR green in vitro
# Format: functional
Quick list: inhibition per entry.
Express it in %; write the number only.

Use these answered entries as a reference point.
Look up inhibition: C=C[C@H]1CN(CCCCCCC)CC[C@H]1CCNc1ccnc2ccc(OC)cc12
-2.18

Look up inhibition: Cc1ccc(NC(=O)Cc2noc(CC3CCCN3C(=O)N[C@@H](C)c3ccccc3)n2)cc1 (stereo not given in full)
3.91

Look up inhibition: Cc1cc(-c2ccc(S(=O)(=O)Nc3cc4c(cc3OC(C)C)CCN(C)CC4)cc2)ccc1Cl
-2.82

Look up inhibition: CN(Cc1cccc(O)c1)C1CCN(c2cc(NC(=O)c3cccc(F)c3)ccn2)CC1
0.01

Look up inhibition: O=C(C=Cc1ccc(Cl)c(Cl)c1)NCCCCCN1CCC(CCCNC(=O)C2CC2c2ccccc2)CC1 (stereo not given)
1.26

Continuing:
Look up inhibition: Nc1cc(-c2ccc(Br)cc2O)nc2ccccc12
1.51

Look up inhibition: COCCN1CCN(Cc2ccc(-c3ccc(-c4nc5cccc(C)c5[nH]4)s3)cc2)CC1
8.84

Look up inhibition: O=C(/C=C/c1ccc(Cl)c(Cl)c1)NCCCCCN1CCC(NC(=O)NCCc2ccccc2)CC1
1.48

###

# SYSTEM: Solute carrier family 2, facilitated glucose transporter member 1 (Homo sapiens) (UniProt P11166)
# EXPERIMENT DESCRIPTION: ST_JUDE_LEISH: Cytotoxicity at 2uM final concentration against transgenic Leishmania Mexicana promastigotes LmGLUT1 that are glucose transport deficient and complemented with the human glucose transporter GLUT1. Activity is measured by DNA content using SYBR green in vitro
# Assay type: functional
Quick list: inhibition per entry.
Express it in %; write the number only.

Use these answered entries as a reference point.
Look up inhibition: CCNC(=O)Nc1cccc(-c2cccc(-c3nc4cccc(C)c4[nH]3)c2)c1
4.32

Look up inhibition: O=S(=O)(NCCN1CCCC1)c1ccc(-c2cccc(CNC3Cc4ccccc4C3)c2)s1
13.9

Continuing:
Look up inhibition: OCc1c(Cl)cc(Cl)cc1CNCCCNc1nc2ccccc2[nH]1
5.72

Look up inhibition: Cc1cccc2nc(-c3ccc(-c4cccc(CNCCNC(=O)c5ccnn5C)c4)cc3)[nH]c12
0.53

Look up inhibition: Cc1cc(CN2CCC(Nc3ncc(-c4ccsc4)c4nc(C(F)(F)F)ccc34)CC2)no1
5.49

Look up inhibition: CN(C)CCCN1CCN(C(=O)c2cccc(-c3noc(C(F)(F)F)n3)c2)CC1
2.61

Look up inhibition: Cc1cccc2nc(-c3cccc(-c4cccc(CN5CCCC5CN)c4)c3)[nH]c12 (configuration not stated)
-0.26

Look up inhibition: COc1ccc(CNc2nccc3ccc(-c4ccc5nccn5c4)cc23)cc1
1.79

Look up inhibition: CC(Cc1ccc(COc2ccc(CC(CO)NCCc3cccc(Cl)c3)cc2)cc1)NCCc1cccc(Cl)c1 (configuration not stated)
51.7

Look up inhibition: CCCCOc1c(CCC)cc(Cc2cnc(N)nc2N)cc1CCC
7.57

Look up inhibition: Cc1cc(N2CCC(NS(=O)(=O)c3ccc(F)cc3)CC2)nc(Nc2cccc(C#N)c2)n1
39.9

Look up inhibition: CCC(=O)N(c1ccccc1)C1CCN(CCCC(NC(=O)Nc2cc(C(F)(F)F)cc(C(F)(F)F)c2)c2ccc(Cl)c(Cl)c2)CC1 (configuration not stated)
-1.01
